- Test system: MCF7
- ASSAY_INFO: Cytotoxicity assay (cell titer-glo and calcein AM), MCF7
- CONDITION: read-out: Cytotoxicity IC50, MCF7, CTG, CTG (cell titer-glo) readout, % error in parentheses
QUANTITY: IC50 (µM)
Write the number in µM without appending the unit.

Some solved entries appear below for comparison.
INSERT INTO measurements (compound, unit_abbrev, recorded_number) VALUES
  ('COc1cc2c(c(OC)c1OC)-c1ccc(OC)c(=O)cc1[C@@H](NC(=O)CN(OC)[C@@H]1OC[C@@H](O)[C@H](O)[C@@H]1O)CC2 [Col1, D-lyxoside]', 'µM', 1.9),
  ('COc1cc2c(c(OC)c1OC)-c1ccc(OC)c(=O)cc1[C@@H](NC(=O)CN(OC)[C@@H]1O[C@H](CBr)[C@H](O)[C@H](O)[C@H]1O)CC2 [Col42, 6-deoxy-6-bromo-D-galactoside]', 'µM', 4.9),
  ('COc1cc2c(c(OC)c1OC)-c1ccc(OC)c(=O)cc1[C@@H](NC(=O)CN(OC)[C@@H]1O[C@H](CN=[N+]=[N-])[C@H](O)[C@H](O)[C@H]1O)CC2 [Col43, 6-deoxy-6-azido-D-galactoside]', 'µM', 4.91),
  ('COc1cc2c(c(OC)c1OC)-c1ccc(OC)c(=O)cc1C(NC(=O)CN(OC)C1OCC(O)C(O)C1O)CC2 [Col25, L-arabinoside]', 'µM', 3.02),
  ('COc1cc2c(c(OC)c1OC)-c1ccc(OC)c(=O)cc1C(NC(=O)CN(OC)C1OC(C)C(O)C(O)C1O)CC2 [Col37, L-rhamnoside]', 'µM', 3.81),
  ('COc1cc2c(c(OC)c1OC)-c1ccc(OC)c(=O)cc1C(NC(=O)CN(OC)C1OCC(O)C(O)C1O)CC2 [Col17, L-xyloside]', 'µM', 6.22);

Prompt line: Reported IC50 for MCF7, given COc1cc2c(c(OC)c1OC)-c1ccc(OC)c(=O)cc1C(NC(=O)CN(OC)C1OCC(O)C(O)C1O)CC2 [Col22, L-riboside] ?
Response line: 4.27

Prompt line: How about COc1cc2c(c(OC)c1OC)-c1ccc(OC)c(=O)cc1[C@@H](NC(=O)CN(OC)[C@@H]1O[C@H](CO)[C@H](O)[C@H](O)[C@H]1NC(C)=O)CC2 [Col28, N-acetyl-D-galactosaminoside] ?
Response line: 4.87

Prompt line: How about COc1cc2c(c(OC)c1OC)-c1ccc(OC)c(=O)cc1C(NC(=O)CN(OC)C1OCC(O)C(O)C1O)CC2 [Col20, D-arabinoside] ?
Response line: 4.44

Prompt line: How about COc1cc2c(c(OC)c1OC)-c1ccc(OC)c(=O)cc1[C@@H](NC(=O)CN(OC)[C@@H]1O[C@H](CO)[C@@H](O)[C@H](F)[C@H]1O)CC2 [Col33, 3-fluoro-3-deoxy-D-glucoside] ?
Response line: 6.64

Prompt line: How about COc1cc2c(c(OC)c1OC)-c1ccc(OC)c(=O)cc1[C@@H](NC(=O)CN(OC)[C@@H]1O[C@H](CO)[C@@H](O)C[C@H]1O)CC2 [Col3, 3-deoxy-D-glucoside] ?
Response line: 3.25

Prompt line: How about COc1cc2c(c(OC)c1OC)-c1ccc(OC)c(=O)cc1C(NC(=O)CN(OC)C1OC(COCc3ccccc3)C(OCc3ccccc3)C1OCc1ccccc1)CC2 (stereo not drawn) ?
Response line: 0.049

Prompt line: How about CCCCCCCCCC(=O)N[C@@H]1[C@@H](O)[C@H](N(CC(=O)N[C@H]2CCc3cc(OC)c(OC)c(OC)c3-c3ccc(OC)c(=O)cc32)OC)O[C@H](CO)[C@H]1O [Col60, 3-deoxy-3-N-decanoyl-D-glucosaminoside] ?
Response line: 3.36

Reference source: patent US20130012466A1
